// endpoint IC50 / system HDAC3 (Homo sapiens, UniProt O15379)
Write it as a number; the unit µM goes unstated.

                                   molecule  numeric_readout
0  CN(C)Cc1ccc(S(=O)(=O)n2ccc3cc(/C=C/C(=O)NO)ccc32)cc1 [Compound 6]             0.38

Continue with the next molecule.
Form field - read-out: IC50; system: HDAC3 (Homo sapiens, UniProt O15379); submitted item: O=C(/C=C/c1ccc(CSc2nc(Cl)cc(-c3ccccc3)n2)cc1)NO [Compound 2]
Sequence (O15379 whole entry): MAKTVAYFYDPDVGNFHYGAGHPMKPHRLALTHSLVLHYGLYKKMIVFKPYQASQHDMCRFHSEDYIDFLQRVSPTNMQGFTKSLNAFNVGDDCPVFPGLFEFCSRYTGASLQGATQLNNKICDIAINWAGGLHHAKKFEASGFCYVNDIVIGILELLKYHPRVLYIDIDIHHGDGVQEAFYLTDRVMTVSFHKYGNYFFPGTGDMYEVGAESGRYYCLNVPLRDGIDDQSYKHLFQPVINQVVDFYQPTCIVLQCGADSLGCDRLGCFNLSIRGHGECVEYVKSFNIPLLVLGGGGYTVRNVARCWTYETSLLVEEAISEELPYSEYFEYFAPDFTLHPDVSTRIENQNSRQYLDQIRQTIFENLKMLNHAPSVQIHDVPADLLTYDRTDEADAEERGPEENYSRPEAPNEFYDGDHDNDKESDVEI
Sequence (Q9Y618 395-489 partner limits assumed): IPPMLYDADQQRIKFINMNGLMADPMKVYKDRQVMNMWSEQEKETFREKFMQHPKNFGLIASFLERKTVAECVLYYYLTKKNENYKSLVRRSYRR
0.53

###

# System: L. donovani axenic amastigotes
# assay_comment: Resazurin reduction assay, L. donovani axenic amastigotes
# Type: cell-based
# test_settings: Leishmania donovani; 0.8 μM; read-out: percentage of inhibition, L. donovani axenic amastigotes
Readings of inhibition at 0.8 µM for the listed molecules
Write it as a number; the unit % goes unstated.

>>> print(df.to_string())
                                   molecule         quantity_name  numeric_readout
0  CC1=C(/C=C/C(C)=C/C=C/C(C)=C/C(=O)Nc2ccccc2N)C(C)(C)CCC1  inhibition at 0.8 µM              4.3
1  CN(C)Cc1ccc(S(=O)(=O)n2ccc3cc(/C=C/C(=O)NO)ccc32)cc1  inhibition at 0.8 µM             39.9
2  Cn1c(/C=C/C(=O)NO)ccc1/C=C/C(=O)c1cccc(Cl)c1  inhibition at 0.8 µM              4.9

Look up inhibition at 0.8 µM: Nc1ccccc1NC(=O)c1ccc(CNC(=O)OCc2cccnc2)cc1 [Compound 9, entinostat, reference compound]
6.7

Look up inhibition at 0.8 µM: "CC(C)(C)OC(=O)Nc1cccc(C(=O)/C=C/c2ccc(/C=C/C(=O)NO)cc2)c1"
39.5

Look up inhibition at 0.8 µM: "O=C(/C=C/c1ccc(CSc2nc(Cl)cc(-c3ccccc3)n2)cc1)NO"
16.4

###

Target protein (sequence): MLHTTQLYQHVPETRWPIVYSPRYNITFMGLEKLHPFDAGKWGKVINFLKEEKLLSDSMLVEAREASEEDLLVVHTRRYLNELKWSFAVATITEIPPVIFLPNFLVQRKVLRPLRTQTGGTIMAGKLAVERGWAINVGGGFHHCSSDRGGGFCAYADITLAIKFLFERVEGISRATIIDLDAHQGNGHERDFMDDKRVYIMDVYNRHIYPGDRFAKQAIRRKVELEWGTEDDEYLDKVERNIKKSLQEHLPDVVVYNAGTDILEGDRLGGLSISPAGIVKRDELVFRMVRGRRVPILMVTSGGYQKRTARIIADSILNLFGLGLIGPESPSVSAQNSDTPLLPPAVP
Readings of IC50 for the listed compounds
Write it as a number; the unit µM goes unstated.

                                   molecule  numeric_readout
0  O=C(/C=C/c1ccc(CSc2nc(Cl)cc(-c3ccccc3)n2)cc1)NO             2.31

Continue with the next compound.
Look up IC50: "CN(C)Cc1ccc(S(=O)(=O)n2ccc3cc(/C=C/C(=O)NO)ccc32)cc1"
4.87

###

# assay_comment: in vitro
# test_settings: mouse
quantity_name: CC50 at 96 h (µM)
Write it as a number; the unit µM goes unstated.

Look up CC50 at 96 h: Nc1ccccc1NC(=O)c1ccc(CNC(=O)OCc2cccnc2)cc1 [Compound 9, entinostat, reference compound]
20

Attribution: paper PMC9274761
